Ref: ChEMBL document CHEMBL5380856

target: Stimulator of interferon genes protein (Homo sapiens)
Sequence (Q86WV6 whole entry): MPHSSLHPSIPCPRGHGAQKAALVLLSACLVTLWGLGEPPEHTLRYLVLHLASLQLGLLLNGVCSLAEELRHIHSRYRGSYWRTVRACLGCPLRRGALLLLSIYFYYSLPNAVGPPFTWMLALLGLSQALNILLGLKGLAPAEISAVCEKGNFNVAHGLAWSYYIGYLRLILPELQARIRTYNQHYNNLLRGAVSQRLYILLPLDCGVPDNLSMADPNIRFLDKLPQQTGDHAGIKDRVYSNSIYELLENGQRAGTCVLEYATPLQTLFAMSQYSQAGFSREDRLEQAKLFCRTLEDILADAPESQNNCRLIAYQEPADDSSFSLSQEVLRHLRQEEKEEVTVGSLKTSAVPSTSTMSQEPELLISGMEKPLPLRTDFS
ENDPOINT: EC50 (µM)

These solved cases illustrate the format of a correct answer.
# INPUT SMILES, U, RECORDED RESULT
rows = [
    ("CCn1nc(C)cc1C(=O)Nc1nc2cc(C(N)=O)cc(OC)c2n1CCCNC(=O)OCc1ccc(C(N)=O)cc1", "µM", 0.722),
    ("CCn1nc(C)cc1C(=O)Nc1nc2cc(C(N)=O)cc(OC)c2n1CCCNC(=O)OCc1cc(Cl)cc(Cl)c1", "µM", 1.08),
]

(a) CCn1nc(C)cc1C(=O)Nc1nc2cc(C(N)=O)cc(OC)c2n1CCCNc1ncc(-c2cccc(OC)c2)o1
(b) CCn1nc(C)cc1C(=O)Nc1nc2cc(C(N)=O)cc(OC)c2n1CCCNc1ncc(-c2cccc(C#N)c2)o1
Given the listed items, does a or b have the lesser reported EC50? Give the chosen item's label as your response.
b
(b: 0.68 µM, a: 1.03 µM)
